Item-by-item account of growth
tested on: HCT-116 colon; assay: NCI-60 one-dose screen, 48 h (100 = growth as untreated, 0 = no growth, -100 = all killed); settings: 10 µM unless noted
The panel holds about 83,000 compounds, 20% with a hit somewhere; the sample as a whole holds those more often.
State just the number; it will be interpreted in %.

# molecule, assaySystem, valueReported
data = [
    ("N#Cc1nc(-c2ccccc2)oc1S(=O)(=O)N1CCCCC1", "HCT-116 colon", 21.2),
    ("Cc1sc2c(c1C)c(=O)nc1c(-c3nc(-c4ccc(F)cc4)no3)n[nH]n12", "HCT-116 colon", 103),
    ("O=C(CN1CCOCC1)NNc1ncnc2ccccc12", "HCT-116 colon", 81.7),
    ("COc1ccc(NC2=C(Cl)C(=O)C(C)=C(C)C2=O)cc1OC", "HCT-116 colon", 96.4),
    ("COc1ccc(/C=C/C(=O)c2ccc(NC(=O)CSc3nnc(-c4ccc5nc(-c6ccc(Cl)cc6)[nH]c5c4)o3)cc2)cc1", "HCT-116 colon", 93.4),
    ("CCOC(=O)c1c(Nc2ccccc2)nn2c(N)c(C#N)c(-c3ccccc3)nc12", "HCT-116 colon", 78.3),
    ("O=C1Nc2ccccc2Oc2ccc(S(=O)(=O)CC3CO3)cc21 (configuration not stated)", "HCT-116 colon", 46.3),
    ("C#Cc1nc(C2=C(C)C(=O)/C(=N/OC(C)=O)C2)cs1", "HCT-116 colon", 78.4),
]

Give growth for the following molecule: C#Cc1nc(C2=C(C)C(O)CC2)cs1 (configuration not stated)
111

Determine its reported growth: COc1ccc2[nH]cc(-c3cc(N)n4nc(-c5c[nH]c6ccc(OC)cc56)cc4n3)c2c1
-88.2

Annotate the molecule CN1CCc2c(sc3ncnc(N/N=C/c4ccc(Cl)c(Cl)c4)c23)C1 with its measured growth.
-64.5

Specify growth for CCN(CC)c1ccc(C=O)c(OCc2cn(CC(=O)Nc3ccc(Cl)cc3)nn2)c1 and stop.
47.3

Quick one: give measured growth for COc1ccc(-c2cc(C(=O)N=Nc3c(O)[nH]c4ccccc34)c3ccccc3n2)cc1OC
101

Give me measured growth, please, for this molecule: O=c1/c(=C\c2ccc(-c3ccccc3)o2)sc2nc(-c3ccccc3)nn12
103

###

tested on: EKVX NSCLC; assay: NCI-60 one-dose screen, 48 h (100 = growth as untreated, 0 = no growth, -100 = all killed); conditions: 10 µM unless noted
This is part of a sample that, as a whole, favours compounds with a hit. Of some 83,000 tested, about 20% had one in any assay. Activity calls are given as the source filed them. How the source made its calls: active means growth percent below 10; inactive means the rest.
Recorded measurements of growth, one per entry

# example entries with known answers
# compound, metric, valueReported
data = [
    ("CC(=O)Oc1ccccc1C(=O)Nc1ccc(C(=O)/C=C/c2ccncc2)cc1", "growth", "71.7% (inactive)"),
    ("Cc1cccc2sc(/N=C(\\N)C(Br)Br)nc12", "growth", "19.9% (inactive)"),
    ("O=C(CN1CCOCC1)NNc1ncnc2ccccc12", "growth", "85.7% (inactive)"),
]

Tell me measured growth for CCCC(=O)NC(c1ccc2c(c1)OC(F)(F)O2)c1cc(C)c2cccnc2c1O (stereo unspecified) please.
23.1% (inactive)

Return growth (reported value) for this compound: COc1cccc(OC)c1-c1nnn(C)c1C(=S)N1CCN(c2ccc([N+](=O)[O-])cc2Cl)CC1
83.6% (inactive)

Answer with reported growth of Nc1c(C(=O)Nc2ccc(C(F)(F)F)cc2)sc2nc(-c3cnccn3)cc(-c3cccs3)c12
76.1% (inactive)

###

system: SN12C renal; assay: NCI-60 one-dose screen, 48 h; conditions: 10 µM unless noted
This is part of a sample that, as a whole, favours compounds with a hit. Of some 83,000 tested, about 20% had one in any assay. Activity calls are given as the source filed them. How the source made its calls: active means growth percent below 10; inactive means the rest.
# output must be one of active, inactive

Some solved cases for reference:
# molecule, answerLabel
measured = [
    ("c1ccc(CNc2ncnc3ccc(-c4cnc5[nH]ncc5c4)cc23)cc1", "inactive"),
    ("CN(C)CCCNc1c2ccc(Cl)cc2nc2c1oc1ccccc12", "active"),
    ("O=C1Nc2ccccc2Oc2ccc(S(=O)(=O)CC3CO3)cc21 (stereo not drawn)", "inactive"),
    ("Clc1ccc2c(NCCCN3CCOCC3)c3oc4ccccc4c3nc2c1", "inactive"),
    ("O=C(CN1C(=O)/C(=C/c2ccccc2)SC1=S)N1CCOCC1", "inactive"),
    ("CCOC(=O)c1sc(NCC(=O)Nc2cccc([N+](=O)[O-])c2)c(C(=O)OCC)c1C", "active"),
]

Please let me know the test result on file for N/C(=N\c1nc2c(Br)cccc2s1)C(Br)Br .
inactive

Kindly provide the recorded test outcome for the following molecule: Nc1nc(N)c2c(n1)NC(c1ccc(F)cc1)CC(c1ccc(Nc3nc(NCCO)nc(Nc4ccc(Cl)cc4)n3)cc1)=N2 (stereo not drawn)
inactive

Look up the recorded call for O=c1[nH]c2ccc(Cl)cc2cc1CSc1ccccc1Nc1nccc(-c2ccc(Cl)cc2)n1 in this test.
inactive

Dear colleague, could you share the recorded outcome for NC(=O)c1cc(-c2ccc3ncnc(N4CCc5cc(F)c(Cl)cc54)c3c2)cnc1N when you have a moment?
inactive

Record request — test call for NS(=O)(=O)c1ccc(Nc2nc(Nc3ccccc3)nc(-n3nc(-c4ccccc4)cc3-c3ccccc3)n2)cc1
inactive

Which result was noted for this molecule in the test: Cn1c(SCC(=O)Nc2ccc(-c3nc4ccc([N+](=O)[O-])cc4[nH]3)cc2)nc2ccccc2c1=O
inactive

Field: outcome | Entry: COc1ccc(/C=C2\SC(=Nc3cc(C)on3)NC2=O)cc1
inactive

Fill in: this test's call for O=C1/C(=C/C2=Cc3ccccc3OC2)SC(=S)N1c1ccc(F)cc1 is ___
inactive

Each molecule tested received a call. Report the one for CCN1C(=S)N(CC)C2C1NN=C1SC(c3ccccc3)=CC(=O)N12 (stereo not drawn) .
inactive

// param item: Fc1ccc(-c2cc3nc(C(Cl)Cl)nc(-c4ccc(Cl)cc4)n3n2)cc1 ; yields the recorded call
inactive

###

tested on: DU-145 prostate; assay: NCI-60 one-dose screen, 48 h (100 = growth as untreated, 0 = no growth, -100 = all killed); settings: 10 µM unless noted
About 83,000 compounds went through this panel and 20% of them were active in at least one assay; those are over-represented in the sample as a whole.
growth vs 80%: less than gives true; not less than gives false.

# compound, answerLabel
measured = [
    ("Cn1c(SCC(=O)Nc2ccc(-c3nc4ccc([N+](=O)[O-])cc4[nH]3)cc2)nc2ccccc2c1=O", "false"),
    ("COc1cc(-c2ccc3ncnc(NC(C)c4ccccc4)c3c2)cnc1OC (configuration not stated)", "true"),
    ("Cn1ccnc1C(=O)/C=C/c1ccc(NC(=O)Nc2ccc(Cl)cc2)cc1", "true"),
    ("Cc1ccccc1NC(=O)/C=C/c1ccc(OCCOc2ccc3c(C)cc(=O)oc3c2)cc1", "false"),
    ("CC(=O)Oc1ccccc1C(=O)Nc1cc(C(C)C)ccc1C", "true"),
]

Answer whether the compound Nc1c(C(=O)Nc2ccc(Cl)cc2)sc2nc(-c3cnccn3)cc(-c3cccs3)c12 has growth strictly less than 80%
true

API: query returns whether the compound falls strictly under 80% in growth. Query: O=[N+]([O-])c1ccc(O)c2ncccc12
true

###

system: RXF 393 renal; assay: NCI-60 one-dose screen, 48 h (100 = growth as untreated, 0 = no growth, -100 = all killed); details: 10 µM unless noted
Compounds without any hit were thinned out: in the full panel of roughly 83,000, 20% have a hit.
# maps each entry to its growth
Report the figure in % without appending any unit label.

# example entries with known answers
# compound, assaySystem, quantityUnit, growth
measured = [
    ("CC(C)(C)OC(=O)N1C(=O)c2c(c3c4ccccc4[nH]c3c3ccc4ccccc4c23)C1=O", "RXF 393 renal", "%", 59),
    ("CCOC(=O)c1csc(NC(=O)CSc2nc3sc4c(c3c(=O)n2-c2ccc(Cl)cc2)CCCC4)n1", "RXF 393 renal", "%", 100),
    ("COc1cc(OC)c(C2SCC(=O)N2Nc2ncnc3ccccc23)cc1OC (stereo not drawn)", "RXF 393 renal", "%", 124),
]

Consider the compound O=C1NC(=C(Cl)Cl)/C(=N/S(=O)(=O)N2CCCCC2CC2(C(F)(F)F)N=N2)N1 (stereo not drawn) . State its measured growth.
-28.8

Look up growth of Oc1c(Cl)cc(Cl)c2ccc(CN3CCCCC3)nc12 and report it.
78.2

Return growth (reported value) for this compound: Cc1sc2nc(NCc3ccccc3Cl)[nH]c(=O)c2c1C
94.3

Identify the reported growth for the following entry. O=C(CSc1nc2sc3c(c2c(=O)n1-c1ccc(Cl)cc1)CCCC3)NNC(=O)Nc1ccc(Cl)c(C(F)(F)F)c1
70.5

State its growth for this compound: CN(C)CCCNc1c2ccc(Cl)cc2nc2c1oc1ccc(Cl)cc12
-80.8

Tell us which growth value is on record for C#C[C@]1(O)CC[C@H]2[C@@H]3CC=C4c5sc(-c6ccc(F)cn6)nc5CC[C@]4(C)[C@H]3CC[C@@]21C
-50.7

Determine its reported growth: COc1cc(/C=C/C(=O)c2cc(OC)c(OC)c(OC)c2)ccc1OCc1ccc(F)cc1
77.7

Tell me measured growth for Cc1ccc(C(=O)Nc2cccc(C(F)(F)F)c2)cc1Nc1nc(-c2cnccn2)nc2c1cnn2C please.
78

Supply measured growth of COC(=O)c1ccc(NC(=S)N2CCc3ccc([N+](=O)[O-])cc3C2)cc1O in your reply.
110

Return value of growth for input O=C(N/N=C/c1ccc[nH]1)c1[nH]c2ccc(Br)cc2c1-c1ccccc1 , no commentary.
53.2

Please report the measured growth for COc1ccc(C(=O)/C=C/c2ccc(OCc3ccc(Cl)cc3)c(OC)c2)cc1OC
96.2

Write down growth measured for item C#C[C@]1(O)CC[C@H]2[C@@H]3CC=C4c5sc(Nc6ccc(Cl)cn6)nc5CC[C@]4(C)[C@H]3CC[C@@]21C
-53.2

Identify the reported growth for the following entry. Clc1ccc2oc3c(OCCCn4ccnc4)c4ccccc4nc3c2c1
57.9

Recall and state the measured growth for O=C(CCN1C(=O)/C(=C/c2ccccc2)SC1=S)N1CCOCC1 .
77.1

Retrieve growth measured for O=C(N/N=C/c1ccc(Br)s1)c1[nH]c2ccc(Br)cc2c1-c1ccccc1 and print it.
60
